- METHOD SUMMARY: general population pharmacokinetic (PPK) model, all patients
- Format: in vivo, human
- Parameters: concentration or dose not given beside the values
- PARTICULARS: human, plasma, iv, general PPK model; transplant (SOT) patients; mean ± SD (range)
OUTCOME MEASURE: AUC (µg·h/mL)
Only the number, expressed in µg·h/mL, is required.

// query Query (compound): CC[C@H](C)C[C@H](C)CCCCCCCCC(=O)N[C@H]1C[C@@H](O)[C@@H](NCCN)NC(=O)[C@@H]2[C@@H](O)CCN2C(=O)[C@H]([C@H](O)CCN)NC(=O)[C@H]([C@H](O)[C@@H](O)c2ccc(O)cc2)NC(=O)[C@@H]2C[C@@H](O)CN2C(=O)[C@H]([C@@H](C)O)NC1=O ; field requested: AUC
// result 136

* * *

- METHOD SUMMARY: general population pharmacokinetic (PPK) model, all patients
- Type: in vivo, human
- Set-up: concentration or dose not given beside the values
- PARTICULARS: human, plasma, iv, general PPK model; hematopathy patients; mean ± SD (range)
OUTCOME MEASURE: AUC (µg·h/mL)
Only the number, expressed in µg·h/mL, is required.

// query Query (molecule): CC[C@H](C)C[C@H](C)CCCCCCCCC(=O)N[C@H]1C[C@@H](O)[C@@H](NCCN)NC(=O)[C@@H]2[C@@H](O)CCN2C(=O)[C@H]([C@H](O)CCN)NC(=O)[C@H]([C@H](O)[C@@H](O)c2ccc(O)cc2)NC(=O)[C@@H]2C[C@@H](O)CN2C(=O)[C@H]([C@@H](C)O)NC1=O ; field requested: AUC
// result 118

* * *

- METHOD SUMMARY: general population pharmacokinetic (PPK) model, all patients
- Assay type: in vivo, human
- PARTICULARS: human, plasma, iv; all patients n = 299; final model; read-out: θ2, typical population value of V
OUTCOME MEASURE: Vd
# output: numeric value plus its unit

// query Query (compound): CC[C@H](C)C[C@H](C)CCCCCCCCC(=O)N[C@H]1C[C@@H](O)[C@@H](NCCN)NC(=O)[C@@H]2[C@@H](O)CCN2C(=O)[C@H]([C@H](O)CCN)NC(=O)[C@H]([C@H](O)[C@@H](O)c2ccc(O)cc2)NC(=O)[C@@H]2C[C@@H](O)CN2C(=O)[C@H]([C@@H](C)O)NC1=O [caspofungin] ; field requested: Vd
// result 13.3 L

* * *

- METHOD SUMMARY: general population pharmacokinetic (PPK) model, all patients
- Type: in vivo, human
- Set-up: concentration or dose not given beside the values
- PARTICULARS: human, plasma, iv, general PPK model; all patients n = 299; mean ± SD (range)
- Experimental: The patients for the general PPK model came from a single-center, and the study was conducted from June 2014 to June 2019 at the First Affiliated Hospital of Xi’an Jiaotong University. Patients who had been diagnosed with confirmed or probable candidiasis and been treated with caspofungin were included in the study. […]
OUTCOME MEASURE: AUC (µg·h/mL)
Only the number, expressed in µg·h/mL, is required.

// query Query (compound): CC[C@H](C)C[C@H](C)CCCCCCCCC(=O)N[C@H]1C[C@@H](O)[C@@H](NCCN)NC(=O)[C@@H]2[C@@H](O)CCN2C(=O)[C@H]([C@H](O)CCN)NC(=O)[C@H]([C@H](O)[C@@H](O)c2ccc(O)cc2)NC(=O)[C@@H]2C[C@@H](O)CN2C(=O)[C@H]([C@@H](C)O)NC1=O ; field requested: AUC
// result 126
